Listed binders paired with reported pKd
target: T1, human mature TGFβ3 (Homo sapiens, UniProt P10600); assay: SPR; Biacore T200; antibody captured on a Protein A sensor chip (about 90 RU); mature TGFβ isoform injected, five-fold dilutions 0.008 nM to 5 nM; HBS-EP pH 7.4, 150 mM NaCl; 37 °C; 100 μl/min; 3 min association, 60 min dissociation; one-to-one Langmuir model, global fit; conditions: both partners purified
T1 construct: Transforming Growth Factor-beta 3, human, mature form (cut from the precursor); also called TGFb3; source: bought: PeproTech
T1 sequence (P10600 301-412): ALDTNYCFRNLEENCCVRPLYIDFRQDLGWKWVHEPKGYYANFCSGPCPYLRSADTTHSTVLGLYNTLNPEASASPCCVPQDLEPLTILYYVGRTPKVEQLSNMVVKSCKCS
The value called pKd is obtained by taking minus log10 of the concentration in mol/L.

Take a look at these entries with their results.
Need pKd, item h4A11.v7.2 (antibody, V domains shown, as the VH of m12 (h4A11.v7); numbers count on: Kabat numbering of the heavy chain; as the VL of m12 (h4A11.v7); human IgG1; also called v7.2_S19R, S79W; source: Expi293F, transient, purified (Protein A, SEC)) VH: EQQLQESGPGLVKPSETLRLTCTVTGFSLSSYTVNWVRQPAGKGLEWIGYISYGGSAYYASWANGRFTISKDSSKNQVWLKLSSVTAADTAVYFCARHMQVGGAPTGSMAAFDPWGPGTLVTVSS VL: EAVLTQSPGTLSLSPGERATLSCQSSQSVYNNNYLSWFQQKPGQPPRLLIYGASTLTSGVPDRFSGSGSGTDFTLTISRLEPEDFAVYYCAGGYSGSSDKYAFGGGTKVEIK 10.64

Need pKd, item h4A11.v7.4 (antibody, V domains shown, as the VH of m12 (h4A11.v7); numbers count on: Kabat numbering of the heavy chain; as the VL of m12 (h4A11.v7); human IgG1; also called v7.4_S19R, S79Y, K81R; source: Expi293F, transient, purified (Protein A, SEC)) VH: EQQLQESGPGLVKPSETLRLTCTVTGFSLSSYTVNWVRQPAGKGLEWIGYISYGGSAYYASWANGRFTISKDSSKNQVYLRLSSVTAADTAVYFCARHMQVGGAPTGSMAAFDPWGPGTLVTVSS VL: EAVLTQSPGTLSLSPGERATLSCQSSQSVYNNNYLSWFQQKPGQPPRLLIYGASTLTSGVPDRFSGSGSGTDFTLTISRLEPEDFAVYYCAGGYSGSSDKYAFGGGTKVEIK 10.73

Now examine the next entry.
Need pKd, item h4A11.v2.2 (antibody, V domains shown, as the VH of m7 (h4A11.v2) with the stated change; numbers count on: Kabat numbering of the heavy chain; as the VL of m7 (h4A11.v2); human IgG1; also called v2.2_Q81N; source: Expi293F, transient, purified (Protein A, SEC)) VH: EQQLVESGGGLVQPGGSLRLSCAVSGFSLSSYTVNWVRQAPGKGLEWIGYISYGGSAYYASWANGRFTISKDSAKNSVYLNMNSLRAEDTAVYFCARHMQVGGAPTGSMAAFDPWGPGTLVTVSS VL: DAQLTQSPSSLSASVGDRVTITCQSSQSVYNNNYLSWFQQKPGKPPKLLIYGASTLTSGVPSRFSGSGSGTDFTLTISSLQPEDFATYYCAGGYSGSSDKYAFGGGTKVEIK 11.22
